Tested on: normal primary NK cells, pool 2 (3 donors) (IL-2 2.5 ng/mL)
Experiment: relative IC50 (inflection point of fitted viability curve, relative to fitted max inhibition); higher = less sensitive
Conditions: 72 h
EXPERIMENTAL ENDPOINT: relative IC50 (nM)
// note: answer is a bare numeric in nM

// known answers, use as guide
- COc1cc([C@@H]2c3cc4c(cc3[C@@H](O[C@@H]3O[C@@H]5CO[C@@H](c6cccs6)O[C@H]5[C@H](O)[C@H]3O)[C@H]3COC(=O)[C@H]23)OCO4)cc(OC)c1O [Teniposide]: 965
- NCC(=O)Nc1ccc(-n2nc(C(F)(F)F)cc2-c2ccc3c(ccc4ccccc43)c2)cc1: 7200
- COc1cccc2c1C(=O)c1c(O)c3c(c(O)c1C2=O)C[C@@](O)(C(C)=O)C[C@@H]3O[C@H]1C[C@H](N)[C@H](O)[C@H](C)O1 [Daunorubicin]: 20.8

Q: Any idea what relative IC50 was measured for COc1cc(O)c2c(c1)/C=C/C[C@H](O)[C@H](O)C(=O)/C=C\C[C@H](C)OC2=O [(5Z)-7-Oxozeaenol] ?
Ans: 1600
